# Measured target: SARS-CoV-2 3CL-Pro (Severe acute respiratory syndrome coronavirus 2, UniProt P0DTD1)
# Construct: SARS-CoV-2 main protease (3CL-Pro), also termed M-Pro
# Measurement notes: biochemical
# Reported conditions: read-out: 3CL-Pro Inhibition [%] Primary Screen (20 µM)
Counter-ions that a name gives are not always drawn.
Consider the following compounds; for each one, report its inhibition at 20 µM.
Report the figure in % without appending any unit label.

Entry `CN1CCN(C2=C(Cl)C(=O)N(c3ccc(Cl)c(Cl)c3)C2=O)CC1` : reported inhibition at 20 µM = ?
100

If you can, please state the reported inhibition at 20 µM value of `Cc1ccc(S(=O)(=O)C=CC#N)cc1` .
95.7

Recorded inhibition at 20 µM of COCCCOc1ccnc(C[S+]([O-])c2nc3ccccc3[nH]2)c1C (stereo not drawn) [compound 8, sodium salt] , please.
94.3

Given the compound `C=CC(=O)c1ccc2ccccc2c1` , what is its reported inhibition at 20 µM?
94.5

Which measured inhibition at 20 µM value corresponds to `COc1cc(C(=S)N2CCOCC2)ccc1O` ?
100

Which inhibition at 20 µM reading was recorded for the compound `CC(C)N(CCC(=O)c1ccc2ccccc2c1)Cc1ccccc1` ?
75.7

Could you share which inhibition at 20 µM value was measured for CN(C)CCNc1nc2cc(O)ccc2c2c1C(=O)c1ccccc1-2 [compound 38, dihydrochloride] ?
96.1

Look up inhibition at 20 µM: `Cn1sc(=O)n(Cc2ccccc2)c1=O`
101

Report inhibition at 20 µM for CC(Cc1ccc(O)c(O)c1)C(C)Cc1ccc(O)c(O)c1 (stereo not drawn) please.
98.5

I have this compound here, `O=C(O)c1cc(O)c2c(c1)[C@H]([C@H]1c3cc(C(=O)O)cc(O)c3C(=O)c3c(O[C@@H]4O[C@H](CO)[C@@H](O)[C@H](O)[C@H]4O)cccc31)c1cccc(O[C@@H]3O[C@H](CO)[C@@H](O)[C@H](O)[C@H]3O)c1C2=O` , and I need its recorded inhibition at 20 µM.
103

Dear colleague, I am looking for the recorded inhibition at 20 µM of the following compound: `CN=c1nc(-c2ccccc2)n(-c2ccccc2)s1`
99.8

So what does the record say about inhibition at 20 µM for `O=[N+]([O-])c1ccc(Sc2cccc[n+]2[O-])c2nonc12` ?
102

Form field: reported inhibition at 20 µM of `CCCC[C@@H](C=O)NC(=O)[C@H](CC(C)C)NC(=O)OCc1ccccc1`
81

Field request: inhibition at 20 µM | item: `O=C(O[C@@H]1Cc2c(O)cc(O)cc2O[C@@H]1c1cc(O)c(O)c(O)c1)c1cc(O)c(O)c(O)c1`
95.3

What value of inhibition at 20 µM has been recorded for this entry: `O=[N+]([O-])C(Br)(CO)CO`
99.9
